- system: chicken gizzard Tpm (Gallus gallus, UniProt P19352)
- Construct: purchased Sigma; host or cells: chicken gizzard (tissue-derived, as the name says)
- Sequence (P19352 1-284 isoform P19352-2): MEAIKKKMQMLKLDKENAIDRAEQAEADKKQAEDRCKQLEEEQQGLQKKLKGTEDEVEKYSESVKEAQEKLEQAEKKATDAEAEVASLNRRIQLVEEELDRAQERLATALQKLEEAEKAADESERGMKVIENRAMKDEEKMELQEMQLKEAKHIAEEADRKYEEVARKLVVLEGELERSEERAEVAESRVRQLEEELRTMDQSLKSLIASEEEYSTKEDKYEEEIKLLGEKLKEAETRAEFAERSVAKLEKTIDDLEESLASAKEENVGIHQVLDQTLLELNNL
- Sequence (P04268 1-284 isoform P04268-2 F73S/I172L/T199L/N203E/L204A partner): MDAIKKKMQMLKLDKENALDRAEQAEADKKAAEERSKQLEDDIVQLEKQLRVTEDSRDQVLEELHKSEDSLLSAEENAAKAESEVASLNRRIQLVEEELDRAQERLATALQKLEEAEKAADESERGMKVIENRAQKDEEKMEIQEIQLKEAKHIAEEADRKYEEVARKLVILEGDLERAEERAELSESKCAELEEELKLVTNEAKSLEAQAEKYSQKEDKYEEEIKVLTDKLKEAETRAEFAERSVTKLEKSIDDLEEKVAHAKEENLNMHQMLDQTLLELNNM
- procedure-text: Binding to immobilized Tpm in a 96 well plate (biotin-HKa competition or direct binding)
- recorded-conditions: Table 5; displacement of 10 nM biotinylated-HKa, 10 μM ZnCl2
Ends that are not written are not given here.
property-measured: IC50 (µM)
Provide the reading as a plain figure in µM.

• HKNKGKKN [ATN16, HKNKGKKN] = 99.5

Pending sequence:
-- ask What value of IC50 has been reported for the following sequence? TRRHDWGH [ATN232, TRRHDWGH]
-- reply 140
